Test system: clinical P. aeruginosa isolates
Protocol summary: microbe, parasite or virus in culture
Condition label: Pseudomonas aeruginosa, 18 h, read-out: Antibiotic sensibility (MIC) of clinical P. aeruginosa isolate AUMC-Pa-6, strain AUMC-Pa-6; antibiotic alone
The entries below come with measured MIC values attached.

Item smiles	Unit	Operator	MIC
COc1cc(Cc2cnc(N)nc2N)cc(OC)c1OC	µM	>	128
CN(C)c1ccc(O)c2c1C[C@H]1C[C@H]3[C@H](N(C)C)C(O)=C(C(N)=O)C(=O)[C@@]3(O)C(O)=C1C2=O	µM	=	16
CO[C@H]1/C=C/O[C@@]2(C)Oc3c(C)c(O)c4c(O)c(c5c(nc6cc(C)ccn65)c4c3C2=O)NC(=O)/C(C)=C\C=C\[C@H](C)[C@H](O)[C@@H](C)[C@@H](O)[C@@H](C)[C@H](OC(C)=O)[C@@H]1C	µM	=	16
O=C(N[C@H](CO)[C@H](O)c1ccc([N+](=O)[O-])cc1)C(Cl)Cl	µM	=	128
CO[C@H]1/C=C/O[C@@]2(C)Oc3c(C)c(O)c4c(c3C2=O)C2=NC3(CCN(CC(C)C)CC3)NC2=C(NC(=O)/C(C)=C\C=C\[C@H](C)[C@H](O)[C@@H](C)[C@@H](O)[C@@H](C)[C@H](OC(C)=O)[C@@H]1C)C4=O	µM	=	16
CO[C@H]1/C=C/O[C@@]2(C)Oc3c(C)c(O)c4c(O)c(c(/C=N/N5CCN(C)CC5)c(O)c4c3C2=O)NC(=O)/C(C)=C\C=C\[C@H](C)[C@H](O)[C@@H](C)[C@@H](O)[C@@H](C)[C@H](OC(C)=O)[C@@H]1C	µM	=	32
CN(C)[C@@H]1C(O)=C(C(N)=O)C(=O)[C@@]2(O)C(O)=C3C(=O)c4c(O)c(NC(=O)CN5CCCC5)cc(F)c4C[C@H]3C[C@@H]12	µM	=	8
C[C@@H](O)[C@H]1C(=O)N2C(C(=O)O)=C(S[C@@H]3CN[C@H](C(=O)N(C)C)C3)[C@H](C)[C@H]12	µM	=	2
CCn1cc(C(=O)O)c(=O)c2ccc(C)nc21	µM	>	128
CC[C@H]1OC(=O)[C@H](C)[C@@H](O[C@H]2C[C@@](C)(OC)[C@@H](O)[C@H](C)O2)[C@H](C)[C@@H](O[C@@H]2O[C@H](C)C[C@H](N(C)C)[C@H]2O)[C@](C)(OC)C[C@@H](C)C(=O)[C@H](C)[C@@H](O)[C@]1(C)O	µM	=	128
CN(C)[C@@H]1C(O)=C(C(N)=O)C(=O)[C@@]2(O)C(O)=C3C(=O)c4c(O)cccc4[C@@](C)(O)[C@H]3C[C@@H]12	µM	=	64

* * *

Test system: clinical P. aeruginosa isolates
Protocol summary: microbe, parasite or virus in culture
Condition label: Pseudomonas aeruginosa, 18 h, read-out: Antibiotic sensibility (MIC) of clinical P. aeruginosa isolate AUMC-Pa-2, strain AUMC-Pa-2; antibiotic alone
Readout: MIC (µM)

Item smiles	Readout	Endpoint value
CO[C@H]1/C=C/O[C@@]2(C)Oc3c(C)c(O)c4c(c3C2=O)C2=NC3(CCN(CC(C)C)CC3)NC2=C(NC(=O)/C(C)=C\C=C\[C@H](C)[C@H](O)[C@@H](C)[C@@H](O)[C@@H](C)[C@H](OC(C)=O)[C@@H]1C)C4=O	MIC	8
CC[C@H]1OC(=O)[C@H](C)C(=O)[C@H](C)[C@@H](O[C@@H]2O[C@H](C)C[C@H](N(C)C)[C@H]2O)[C@](C)(OC)C[C@@H](C)C(=O)[C@H](C)[C@H]2N(CCCCn3cnc(-c4cccnc4)c3)C(=O)O[C@]12C	MIC	64

* * *

The entries below come with measured log10 of MIC values attached.
System: P. aeruginosa ATCC27853
Protocol summary: microbe, parasite or virus in culture
Condition label: Pseudomonas aeruginosa, ATCC27853, 18 h, read-out: MICa: MIC of the antibiotic
Readout: log10 of MIC (log10 of the value in µM)

Compound	Tested target	Readout	Endpoint value
CC1COc2c(N3CCN(C)CC3)c(F)cc3c(=O)c(C(=O)O)cn1c23 (stereo not drawn)	P. aeruginosa ATCC27853	log10 of MIC	0.30
CO[C@H]1/C=C/O[C@@]2(C)Oc3c(C)c(O)c4c(O)c(c(/C=N/N5CCN(C)CC5)c(O)c4c3C2=O)NC(=O)/C(C)=C\C=C\[C@H](C)[C@H](O)[C@@H](C)[C@@H](O)[C@@H](C)[C@H](OC(C)=O)[C@@H]1C	P. aeruginosa ATCC27853	log10 of MIC	1.20
CO[C@H]1[C@H](OC(=O)c2ccc(C)[nH]2)[C@H](O)[C@@H](Oc2ccc3c(O)c(NC(=O)c4c[nH]c(C(=O)Nc5c(O)c6ccc(O[C@H]7OC(C)(C)[C@@H](OC)[C@H](OC(=O)c8ccc(C)[nH]8)[C@@H]7O)c(C)c6oc5=O)c4C)c(=O)oc3c2C)OC1(C)C	P. aeruginosa ATCC27853	log10 of MIC	0.90
C[C@H]1c2cccc(O)c2C(=O)C2=C(O)[C@]3(O)C(=O)C(C(N)=O)=C(O)[C@@H](N(C)C)[C@@H]3[C@@H](O)[C@@H]21	P. aeruginosa ATCC27853	log10 of MIC	1.20
CO[C@H]1/C=C/O[C@@]2(C)Oc3c(C)c(O)c4c(O)c(c(/C=N/N5CCN(C6CCCC6)CC5)c(O)c4c3C2=O)NC(=O)/C(C)=C\C=C\[C@H](C)[C@H](O)[C@@H](C)[C@@H](O)[C@@H](C)[C@H](OC(C)=O)[C@@H]1C	P. aeruginosa ATCC27853	log10 of MIC	1.51
CO[C@@H]1[C@@H](OC(=O)c2ccc(C)[nH]2)[C@@H](O)[C@H](Oc2ccc3c(O)c(NC(=O)c4ccc(O)c(CC=C(C)C)c4)c(=O)oc3c2Cl)OC1(C)C	P. aeruginosa ATCC27853	log10 of MIC	-0.30
CO[C@H]1/C=C/O[C@@]2(C)Oc3c(C)c(O)c4c(c3C2=O)C2=NC3(CCN(CC(C)C)CC3)NC2=C(NC(=O)/C(C)=C\C=C\[C@H](C)[C@H](O)[C@@H](C)[C@@H](O)[C@@H](C)[C@H](OC(C)=O)[C@@H]1C)C4=O	P. aeruginosa ATCC27853	log10 of MIC	1.20

* * *

Test system: P. aeruginosa PAK
Protocol summary: microbe, parasite or virus in culture
Condition label: strain PAK; antibiotic + D-11 (MICb/MICbc 64/4)
# strict inequality: FICI < 0.1 yields met, everything else yields not met

Compound	Qualitative label
CO[C@H]1/C=C/O[C@@]2(C)Oc3c(C)c(O)c4c(O)c(c5c(nc6cc(C)ccn65)c4c3C2=O)NC(=O)/C(C)=C\C=C\[C@H](C)[C@H](O)[C@@H](C)[C@@H](O)[C@@H](C)[C@H](OC(C)=O)[C@@H]1C	met
CC[C@H]1OC(=O)[C@H](C)[C@@H](O[C@H]2C[C@@](C)(OC)[C@@H](O)[C@H](C)O2)[C@H](C)[C@@H](O[C@@H]2O[C@H](C)C[C@H](N(C)C)[C@H]2O)[C@](C)(OC)C[C@@H](C)C(=O)[C@H](C)[C@@H](O)[C@]1(C)O	not met
CO[C@@H]1[C@@H](OC(N)=O)[C@@H](O)[C@H](Oc2ccc3c(O)c(NC(=O)c4ccc(O)c(CC=C(C)C)c4)c(=O)oc3c2C)OC1(C)C	met
CCn1cc(C(=O)O)c(=O)c2ccc(C)nc21	not met
CO[C@@H]1[C@@H](OC(=O)c2ccc(C)[nH]2)[C@@H](O)[C@H](Oc2ccc3c(O)c(NC(=O)c4ccc(O)c(CC=C(C)C)c4)c(=O)oc3c2Cl)OC1(C)C	not met
COc1cc(Cc2cnc(N)nc2N)cc(OC)c1OC	not met
CO[C@H]1/C=C/O[C@@]2(C)Oc3c(C)c(O)c4c(c3C2=O)C2=NC3(CCN(CC(C)C)CC3)NC2=C(NC(=O)/C(C)=C\C=C\[C@H](C)[C@H](O)[C@@H](C)[C@@H](O)[C@@H](C)[C@H](OC(C)=O)[C@@H]1C)C4=O	met
C[C@H]1[C@H](NC(=O)/C(=N\OC(C)(C)C(=O)O)c2csc(N)n2)C(=O)N1S(=O)(=O)O	not met
CN(C)c1ccc(O)c2c1C[C@H]1C[C@H]3[C@H](N(C)C)C(O)=C(C(N)=O)C(=O)[C@@]3(O)C(O)=C1C2=O	not met
CC[C@H]1OC(=O)[C@H](C)C(=O)[C@H](C)[C@@H](O[C@@H]2O[C@H](C)C[C@H](N(C)C)[C@H]2O)[C@](C)(OC)C[C@@H](C)C(=O)[C@H](C)[C@H]2N(CCCCn3cnc(-c4cccnc4)c3)C(=O)O[C@]12C	not met
CO[C@H]1/C=C/O[C@@]2(C)Oc3c(C)c(O)c4c(O)c(c(/C=N/N5CCN(C6CCCC6)CC5)c(O)c4c3C2=O)NC(=O)/C(C)=C\C=C\[C@H](C)[C@H](O)[C@@H](C)[C@@H](O)[C@@H](C)[C@H](OC(C)=O)[C@@H]1C	met
CC[C@H]1OC(=O)[C@H](C)[C@@H](O[C@H]2C[C@@](C)(OC)[C@@H](O)[C@H](C)O2)[C@H](C)[C@@H](O[C@@H]2O[C@H](C)C[C@H](N(C)C)[C@H]2O)[C@](C)(O)C[C@@H](C)CN(C)[C@H](C)[C@@H](O)[C@]1(C)O	not met
C[C@@H](O)[C@H]1C(=O)N2C(C(=O)O)=C(S[C@@H]3CN[C@H](C(=O)N(C)C)C3)[C@H](C)[C@H]12	not met
CC[C@H]1OC(=O)[C@H](C)[C@@H](O[C@H]2C[C@@](C)(OC)[C@@H](O)[C@H](C)O2)[C@H](C)[C@@H](O[C@@H]2O[C@H](C)C[C@H](N(C)C)[C@H]2O)[C@](C)(O)C[C@@H](C)C(=O)[C@H](C)[C@@H](O)[C@]1(C)O	not met
O=C(N[C@H](CO)[C@H](O)c1ccc([N+](=O)[O-])cc1)C(Cl)Cl	met
CC1(C)S[C@@H]2[C@H](NC(=O)C(C(=O)O)c3ccccc3)C(=O)N2[C@H]1C(=O)O (stereo partly drawn)	not met
CO[C@H]1[C@H](OC(=O)c2ccc(C)[nH]2)[C@H](O)[C@@H](Oc2ccc3c(O)c(NC(=O)c4c[nH]c(C(=O)Nc5c(O)c6ccc(O[C@H]7OC(C)(C)[C@@H](OC)[C@H](OC(=O)c8ccc(C)[nH]8)[C@@H]7O)c(C)c6oc5=O)c4C)c(=O)oc3c2C)OC1(C)C	not met
C[C@@H]1O[C@@H]1P(=O)(O)O	not met
C[C@H]1c2cccc(O)c2C(=O)C2=C(O)[C@]3(O)C(=O)C(C(N)=O)=C(O)[C@@H](N(C)C)[C@@H]3[C@@H](O)[C@@H]21	met
CC1COc2c(N3CCN(C)CC3)c(F)cc3c(=O)c(C(=O)O)cn1c23 (stereo not drawn)	not met
C[C@H]1COc2c(N3CCN(C)CC3)c(F)cc3c(=O)c(C(=O)O)cn1c23	not met
